EXPERIMENT_DESCRIPTION: Absorption spectrum, emission spectrum and extinction coefficient in toluene solution
Format: physicochemical
Known Emission peak of the toluene solution of a selection of compounds
Answer with a number only, understood to be in nm.

| COMPOUND | PROPERTY_LABEL | RECORDED_MEASUREMENT |
| --- | --- | --- |
| CCCCCCC1(CCCCCC)c2ccccc2-c2ccc(-c3ccccc3-c3ccc4c5cccc6c(-c7ccccc7-c7ccc8c(c7)C(CCCCCC)(CCCCCC)c7ccccc7-8)ccc(c7cccc3c74)c65)cc21 [comparative compound 1, reference compound] | Emission peak of the toluene solution | 485 |

// moving on: another record for Emission peak of the toluene solution
Prompt: Requested read-out: Emission peak of the toluene solution. Entry: Cc1cccc(C)c1N(c1ccccc1)c1cc(N(c2ccccc2)c2c(C)cccc2C)c2ccc3c(N(c4ccccc4)c4c(C)cccc4C)cc(N(c4ccccc4)c4c(C)cccc4C)c4ccc1c2c43
Completion: 490
